Could you please report measured Cmax for the items listed next?
# test: Cmax in Sprague-Dawley rat at 2 mg/kg, po measured upto 8 hrs by LC/MS/MS analysis
# Type: ADME, organism-based
# Set-up: route oral, dose 2 mg/kg, time <=8
# cond: in vivo
Field: numeric (µM). Do not append units.

Prompt: I'd like to know its Cmax. The compound in question is COc1ccc2c(c1)CC(C(=O)Nc1cc(F)c(-c3cn[nH]c3)c(F)c1)CO2 (configuration not stated)
Response: 0.67

Prompt: Find the recorded Cmax belonging to O=C(Nc1cc(F)c(-c2cn[nH]c2)c(F)c1)C1COc2ccccc2C1 (configuration not stated) and report it.
Response: 0.6
